- Tested target: human recombinant FKBP12 (Homo sapiens, UniProt P62942)
- Sequence (P62942 whole entry): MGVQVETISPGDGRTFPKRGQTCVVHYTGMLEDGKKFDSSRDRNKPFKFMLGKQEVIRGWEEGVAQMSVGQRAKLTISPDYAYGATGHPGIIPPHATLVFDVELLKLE
- Method: Test 1: immunophilin FKBP12 rotamase (peptidylprolyl isomerase) inhibiting activity
- Run parameters: 12 nM human recombinant FKBP12, substrate succinyl-Ala-Phe-Pro-Phe-paranitroanilide 48 μM, 4° C.; read-out: PKBP12 rotamase inhibiting activity IC50
- From the text: (Test 1) Test for Measuring Immunophilin FKBP12 Rotamase Activity […]
pIC50: −log10 of the molar value.
Recorded endpoint: pIC50

# example entries with known answers
{"Compound": "CC1(C)CC(C)(C)CC(O)(C(F)(F)C(=O)N2CCC[C@H]2c2nnc(CO)o2)C1 [Compound 22]", "pIC50": "5.70 to 6.00"}
{"Compound": "CC1(C)CC(C)(C)CC(O)(C(F)(F)C(=O)N2CCC[C@H]2c2nnc(Cc3cccnc3)o2)C1 [Compound 34]", "pIC50": "6.00 to 6.30"}
{"Compound": "COc1ccc(OCc2noc([C@@H]3CCCN3C(=O)C(F)(F)C3(O)CC(C)(C)CC(C)(C)C3)n2)cc1OC [Compound 3]", "pIC50": "6.00 to 6.30"}
{"Compound": "CC1(C)CC(C)(C)CC(O)(C(F)(F)C(=O)N2CCC[C@H]2c2cc(CO)on2)C1 [Compound 18]", "pIC50": "6.00 to 6.30"}
{"Compound": "CC1(C)CC(C)(C)CC(O)(C(F)(F)C(=O)N2CCC[C@H]2c2nnc(CN)o2)C1 [Compound 37]", "pIC50": "5.70 to 6.00"}

# batch: return pIC50 for each of the 4 compounds below
1. CC1(C)CC(C)(C)CC(O)(C(F)(F)C(=O)N2CCC[C@H]2c2nnc(CNC(=O)c3ccccc3)o2)C1 [Compound 38]
2. COc1ccc(OCc2cnc([C@@H]3CCCN3C(=O)C(F)(F)C3(O)CC(C)(C)CC(C)(C)C3)o2)cc1OC [Compound 6]
3. CC1(C)CC(C)(C)CC(O)(C(F)(F)C(=O)N2CCC[C@H]2c2cc(CNC(=O)Cc3ccccc3)on2)C1 [Compound 48]
4. COc1ccc(OCc2cc([C@@H]3CCCN3C(=O)C(F)(F)C3(O)CC(C)(C)CC(C)(C)C3)nn2C)cc1OC [Compound 9]

["6.00 to 6.30", "6.00 to 6.30", 7.03, "6.00 to 6.30"]

---

Please go through the items and note down their IC50.
- Tested target: human recombinant FKBP12 (Homo sapiens)
- Method: Test 1: immunophilin FKBP12 rotamase (peptidylprolyl isomerase) inhibiting activity
- Run parameters: 12 nM human recombinant FKBP12, substrate succinyl-Ala-Phe-Pro-Phe-paranitroanilide 48 μM, 4° C.; read-out: PKBP12 rotamase inhibiting activity IC50
One number for each entry, in nM.

{"Chem smiles": "Cc1ccc(OCc2cc([C@@H]3CCCN3C(=O)C(F)(F)C3(O)CC(C)(C)CC(C)(C)C3)no2)cc1", "Units symbol": "nM", "IC50": 241}
{"Chem smiles": "CC1(C)CC(C)(C)CC(O)(C(F)(F)C(=O)N2CCC[C@H]2c2cc(COc3cncnc3)on2)C1", "Units symbol": "nM", "IC50": 124}
{"Chem smiles": "CC1(C)CC(C)(C)CC(O)(C(F)(F)C(=O)N2CCC[C@H]2c2nnc(COc3ccc(CO)cc3)o2)C1", "Units symbol": "nM", "IC50": 229}

Could you now consider this next compound?
// returns reported IC50 for input `COc1ccc(OCc2cc([C@@H]3CCCN3C(=O)C(F)(F)C3(O)CC(C)(C)CC(C)(C)C3)n[nH]2)cc1OC`
235

---

- Tested target: human recombinant FKBP12 (Homo sapiens)
- Method: Test 1: immunophilin FKBP12 rotamase (peptidylprolyl isomerase) inhibiting activity
- Run parameters: 12 nM human recombinant FKBP12, substrate succinyl-Ala-Phe-Pro-Phe-paranitroanilide 48 μM, 4° C.; read-out: PKBP12 rotamase inhibiting activity IC50
Please go through the items and note down their pIC50.
Numbers only, as −log10 of the molar value.

# example entries with known answers
{"Chem smiles": "COc1ccc(OCc2nc([C@@H]3CCCN3C(=O)C(F)(F)C3(O)CC(C)(C)CC(C)(C)C3)n[nH]2)cc1OC", "Tested target": "human recombinant FKBP12 (Homo sapiens)", "pIC50": 6.92}
{"Chem smiles": "COc1ccc(-c2nnc([C@@H]3CCCN3C(=O)C(F)(F)C3(O)CC(C)(C)CC(C)(C)C3)o2)cc1OC", "Tested target": "human recombinant FKBP12 (Homo sapiens)", "pIC50": 6.36}

Could you now consider this next molecule?
// returns reported pIC50 for input `COc1ccc(OCc2cc([C@@H]3CCCN3C(=O)C(F)(F)C3(O)CC(C)(C)CC(C)(C)C3)no2)cc1OC`
7.31

---

- Tested target: human recombinant FKBP12 (Homo sapiens, UniProt P62942)
- Method: Test 1: immunophilin FKBP12 rotamase (peptidylprolyl isomerase) inhibiting activity
- Run parameters: 12 nM human recombinant FKBP12, substrate succinyl-Ala-Phe-Pro-Phe-paranitroanilide 48 μM, 4° C.; read-out: PKBP12 rotamase inhibiting activity IC50
pIC50: −log10 of the molar value.
Recorded endpoint: pIC50

# example entries with known answers
{"Chem smiles": "COc1cccc(OCc2nnc([C@@H]3CCCN3C(=O)C(F)(F)C3(O)CC(C)(C)CC(C)(C)C3)o2)c1", "pIC50": "6.00 to 6.30"}
{"Chem smiles": "COc1ccc(CCCc2nnc([C@@H]3CCCN3C(=O)C(F)(F)C3(O)CC(C)(C)CC(C)(C)C3)o2)cc1OC", "pIC50": "6.00 to 6.30"}
{"Chem smiles": "COc1ccc(OCc2cnc([C@@H]3CCCN3C(=O)C(F)(F)C3(O)CC(C)(C)CC(C)(C)C3)s2)cc1OC", "pIC50": "6.00 to 6.30"}

Could you now consider this next compound?
// returns reported pIC50 for input `COc1ccc(OCc2cc([C@@H]3CCCN3C(=O)C(F)(F)C3(O)CC(C)(C)CC(C)(C)C3)on2)cc1OC`
6.00 to 6.30
